- MEASUREMENT TARGET: T1, recombinant human ROR1 protein (Fc-Tag, Acro Biosystems RO1-H5250) (human, UniProt Q01973 30-406)
- T1 construct: Bought; also called hROR1; recombinant human ROR1 ECD; not shown: Fc tag
- TEST SUMMARY: SPR; hROR1-Fc immobilized
RESULT TYPE: kon (M⁻¹ s⁻¹)
Unit M⁻¹ s⁻¹ implied. Number only.

binder="PRO2062 (scFv, V domains shown, scFv (Full graft); also called 55-39-G02-sc02) VH: QSQLVESGGGLVQPGGSLRLSCAVSGLSLSRNAMSWVRQAPGKGLEWIGIILTSGSTYYASWAKGRFTISKDNSKNTVYLQMNSLRAEDTAVYFCVRGIASSSLKSFWGQGTLVTVSS VL: AQQLTQSPSSLSASVGDRVTITCQASQNVWNNNYLSWFQQKPGKPPKLLIVTASTLASGVSSRFSGSGSGTDFTLTISSLQPEDFATYYCAGGFSGEIRAFGTGTKVTVLG" unit_symbol="M⁻¹ s⁻¹" reported_value=5.29e+06

Could you now consider this next binder?
-- ask Find the recorded kon belonging to PRO2292 (scFv, V domains shown, scFv, PRO2062 with VL-VH interdomain disulfide (AHo 141VL-51VH); also called 55-39-G02-sc05) VH: QSQLVESGGGLVQPGGSLRLSCAVSGLSLSRNAMSWVRQAPGKCLEWIGIILTSGSTYYASWAKGRFTISKDNSKNTVYLQMNSLRAEDTAVYFCVRGIASSSLKSFWGQGTLVTVSS VL: AQQLTQSPSSLSASVGDRVTITCQASQNVWNNNYLSWFQQKPGKPPKLLIVTASTLASGVSSRFSGSGSGTDFTLTISSLQPEDFATYYCAGGFSGEIRAFGCGTKVTVLG and report it.
-- reply 6.8e+06
